Values compiled from ChEMBL document CHEMBL1136445.

# Test Target: Mitochondrial complex I; NADH oxidoreductase (Bos taurus, UniProt P25708+P52505)
# Sequence (P25708 21-464 limits assumed, other chains not shown): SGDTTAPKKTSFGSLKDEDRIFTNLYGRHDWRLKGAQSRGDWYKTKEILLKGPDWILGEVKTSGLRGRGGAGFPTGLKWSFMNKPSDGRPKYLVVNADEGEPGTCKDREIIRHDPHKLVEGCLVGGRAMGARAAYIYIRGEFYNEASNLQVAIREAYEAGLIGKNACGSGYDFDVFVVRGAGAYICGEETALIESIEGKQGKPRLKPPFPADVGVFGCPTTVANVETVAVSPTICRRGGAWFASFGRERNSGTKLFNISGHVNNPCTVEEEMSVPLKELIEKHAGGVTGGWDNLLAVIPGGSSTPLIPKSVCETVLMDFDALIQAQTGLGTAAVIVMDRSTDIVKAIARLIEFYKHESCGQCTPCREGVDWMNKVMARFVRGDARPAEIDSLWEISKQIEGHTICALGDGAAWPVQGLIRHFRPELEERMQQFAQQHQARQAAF
# Method: Inhibitory activity against NADH oxidase in beef heart mitochondrial complex I.
Reported pIC50 values for the following molecules.
# pIC50 is unitless: minus log10 of the molar concentration; print number only

• CCCCCCCCCCCC[C@H](O)[C@@H]1CC[C@@H]([C@@H](O)CCCC/C(CCCCC[C@@H](O)CC2=C[C@H](C)OC2=O)=N\O)O1 = 8.57

Exercise: // pIC50 lookup, key: CCCCCCCCCCCC[C@H](O)[C@@H]1CC[C@@H]([C@@H](O)CCCCC(=O)CCCCC[C@@H](O)CC2=C[C@H](C)OC2=O)O1
Solution: 9.10

Exercise: Report pIC50 for CCCCCCCCCCCC[C@H](O)[C@@H]1CC[C@@H]([C@@H](O)CCCC[C@@H](O)CCCCC[C@@H](O)CC2C[C@H](C)OC2=O)O1 (stereo partly specified) please.
Solution: 8.44

Exercise: Value lookup for pIC50; key = CCCCCCCCCCCC[C@H](O)[C@@H]1CC[C@@H]([C@@H](O)CCCC[C@@H](O)CCCCC[C@@H]2CC(C/C(C)=N/O)C(=O)O2)O1 (stereo partly specified)
Solution: 8.72

Exercise: Using the record for C=C(C)[C@H]1Cc2c(ccc3c2O[C@@H]2COc4cc(OC)c(OC)cc4[C@@H]2C3=O)O1 , report its pIC50.
Solution: 8.29

Exercise: Returns the measured pIC50 for the input molecule. Input: CCCCCCCCCCCC[C@H](O)[C@@H]1CC[C@@H]([C@@H](O)CCCC[C@@H](O)CCCCC[C@@H](O)CC2=C[C@H](C)OC2=O)O1
Solution: 8.64

---

# Test Target: Mitochondrial complex I; NADH oxidoreductase (Bos taurus, UniProt P25708+P52505)
# Method: Inhibitory activity against NADH oxidase in beef heart mitochondrial complex I.
Property Name: IC50 (nM)
Form entry: value (nM) — number only.

- CCCCCCCCCCCC[C@H](O)[C@@H]1CC[C@@H]([C@@H](O)CCCCC(=O)CCCCC[C@@H]2CC(CC(C)=O)C(=O)O2)O1 (stereo not given in full): 0.7
- CCCCCCCCCCCC[C@H](O)[C@@H]1CC[C@@H]([C@@H](O)CCCC[C@@H](O)CCCCC[C@@H](O)CC2(O)C(=O)O[C@@H](C)C2O)O1 (stereo not given in full): 21.8
- CCCCCCCCCCCC[C@H](O)[C@@H]1CC[C@@H]([C@@H](O)CCCC[C@@H](O)CCCCC[C@@H]2CC(CC(C)O)C(=O)O2)O1 (stereo not given in full): 5.8

Exercise: IC50 for CCCCCCCCCCCC[C@H](O)[C@@H]1CC[C@@H]([C@@H](O)CCCC[C@@H](O)CCCCC[C@@H]2CC(CC(C)=O)C(=O)O2)O1 (stereo not given in full) ?
Solution: 3.3

---

# Test Target: Mitochondrial complex I; NADH oxidoreductase (Bos taurus) (UniProt P25708+P52505)
# Method: Inhibitory potency against NADH oxidase with respect to compound 2c
# Format: protein-complex assay
Relative potency values, listed per item
Would you mind answering with just the numeric figure?

* CCCCCCCCCCCC[C@H](O)[C@@H]1CC[C@@H]([C@@H](O)CCCCC(=O)CCCCC[C@@H]2CC(CC(C)=O)C(=O)O2)O1 (stereo partly specified) | 1
* CCCCCCCCCCCC[C@H](O)[C@@H]1CC[C@@H]([C@@H](O)CCCCC(=O)CCCCC[C@@H](O)CC2=C[C@H](C)OC2=O)O1 | 1.1
* CCCCCCCCCCCC[C@H](O)[C@@H]1CC[C@@H]([C@@H](O)CCCC[C@@H](O)CCCCC[C@@H]2CC(C/C(C)=N/O)C(=O)O2)O1 (stereo partly specified) | 2.7

Exercise: Look up Relative potency for this compound: CCCCCCCCCCCC[C@H](O)[C@@H]1CC[C@@H]([C@@H](O)CCCC[C@@H](O)CCCCC[C@@H]2CC(CC(C)=O)C(=O)O2)O1 (stereo partly specified)
Solution: 4.7

Exercise: Look up Relative potency: CCCCCCCCCCCC[C@H](O)[C@@H]1CC[C@@H]([C@@H](O)CCCC[C@@H](O)CCCCC[C@@H](O)CC2(O)C(=O)O[C@@H](C)C2O)O1 (stereo partly specified)
Solution: 31.1

Exercise: Requested field: Relative potency. Item: CCCCCCCCCCCC[C@H](O)[C@@H]1CC[C@@H]([C@@H](O)CCCC[C@@H](O)CCCCC[C@@H](O)CC2C[C@H](C)OC2=O)O1 (stereo partly specified)
Solution: 5.1

---

# Method: Inhibitory activity against NADH/DH oxidoreductase in beef heart mitochondrial complex I.
# Parameters: species or system Bos taurus
Property Name: IC50 (nM)
Quick note: give the figure in nM, leave out the unit.

Consider the worked cases shown below.
* CCCCCCCCCCCC[C@H](O)[C@@H]1CC[C@@H]([C@@H](O)CCCCC(=O)CCCCC[C@@H](O)CC2=C[C@H](C)OC2=O)O1 | 3.7
* CCCCCCCCCCCC[C@H](O)[C@@H]1CC[C@@H]([C@@H](O)CCCC/C(CCCCC[C@@H](O)CC2=C[C@H](C)OC2=O)=N\O)O1 | 10.3
* CCCCCCCCCCCC[C@H](O)[C@@H]1CC[C@@H]([C@@H](O)CCCC[C@@H](O)CCCCC[C@@H](O)CC2=C[C@H](C)OC2=O)O1 | 26.1
* CCCCCCCCCCCC[C@H](O)[C@@H]1CC[C@@H]([C@@H](O)CCCC[C@@H](O)CCCCC[C@@H]2CC(C/C(C)=N/O)C(=O)O2)O1 (stereo partly specified) | 8.7
* C=C(C)[C@H]1Cc2c(ccc3c2O[C@@H]2COc4cc(OC)c(OC)cc4[C@@H]2C3=O)O1 | 28.8
* CCCCCCCCCCCC[C@H](O)[C@@H]1CC[C@@H]([C@@H](O)CCCC[C@@H](O)CCCCC[C@@H](O)CC2(O)C(=O)O[C@@H](C)C2O)O1 (stereo partly specified) | 55.2
* CCCCCCCCCCCC[C@H](O)[C@@H]1CC[C@@H]([C@@H](O)CCCC[C@@H](O)CCCCC[C@@H]2CC(CC(C)O)C(=O)O2)O1 (stereo partly specified) | 51
* CCCCCCCCCCCC[C@H](O)[C@@H]1CC[C@@H]([C@@H](O)CCCC[C@@H](O)CCCCC[C@@H]2CC(CC(C)=O)C(=O)O2)O1 (stereo partly specified) | 14.6
* CCCCCCCCCCCC[C@H](O)[C@@H]1CC[C@@H]([C@@H](O)CCCCC(=O)CCCCC[C@@H]2CC(CC(C)=O)C(=O)O2)O1 (stereo partly specified) | 1.1

Next:
Exercise: What does the data say about its IC50? Entry: CCCCCCCCCCCC[C@H](O)[C@@H]1CC[C@@H]([C@@H](O)CCCC[C@@H](O)CCCCC[C@@H](O)CC2C[C@H](C)OC2=O)O1 (stereo partly specified)
Solution: 19.9
